Measured pIC50, listed per entry.
# Tested on: NO36 mesothelioma cell line
# Protocol summary: Anchorage-independent growth-death assay, NO36
# Assay type: cell-based, human
# Experimental setup: Homo sapiens, 144 h, single agent, 6 days, anchorage-independent, read-out: gIC50
pIC50: −log10 of the molar value.

{"Entry smiles": "CC(=O)Nc1cccc(-n2c(=O)n(C3CC3)c(=O)c3c(Nc4ccc(I)cc4F)n(C)c(=O)c(C)c32)c1", "pIC50": 6.87}
{"Entry smiles": "CONC(=O)c1ccccc1Nc1cc(Nc2cc(C)nn2C(C)C)ncc1Cl", "pIC50": 4.77}

---

# EC50 per record follows
# Tested on: Mero-14 mesothelioma cell line
# Protocol summary: Anchorage-independent growth-death assay, Mero-14
# Format: cell-based, human
# Experimental setup: Homo sapiens, 144 h, single agent, 6 days, anchorage-independent, read-out: dEC50
Reported metric: EC50 (µM)

{"Entry smiles": "CONC(=O)c1ccccc1Nc1cc(Nc2cc(C)nn2C(C)C)ncc1Cl", "Units of measure": "µM", "Meas value": 9.58}
{"Entry smiles": "CC(=O)Nc1cccc(-n2c(=O)n(C3CC3)c(=O)c3c(Nc4ccc(I)cc4F)n(C)c(=O)c(C)c32)c1", "Units of measure": "µM", "Meas value": 0.071}

---

# Test system: Mero-82 mesothelioma cell line
# Protocol summary: Anchorage-independent growth-death assay, Mero-82
# Type: cell-based, human
# Experimental setup: Homo sapiens, 144 h, single agent, 6 days, anchorage-independent, read-out: dEC50
pEC50: −log10 of the molar value.
Reported metric: pEC50

{"Molecule": "CC(=O)Nc1cccc(-n2c(=O)n(C3CC3)c(=O)c3c(Nc4ccc(I)cc4F)n(C)c(=O)c(C)c32)c1 [Compound B]", "Reported metric": "pEC50", "Meas value": 6.72}
{"Molecule": "CONC(=O)c1ccccc1Nc1cc(Nc2cc(C)nn2C(C)C)ncc1Cl [Compound A]", "Reported metric": "pEC50", "Meas value": 5.16}

meta.source: patent US20160263116A1
